# Test system: NCI/ADR-RES
# assay-comment: NCI tumour cell line growth inhibition, 48 h
Calls of active or inactive are those of the source. Cut-off read from the data, not from the text of the source: active = GI50 up to about 1.1 µM and inactive = higher.
Give GI50 for every item shown.

Check out these entries, answers already filled in.
1. CC(=O)N1C(OC(C)C)CC(C)N1c1ccccc1 (stereo not given)    > 10 µM (inactive)
2. CC(C)Oc1c(-c2c(OC(C)C)c(=O)c2=O)c(=O)c1=O    4.81 µM (inactive)
3. CC1OC(Oc2c(-c3cc(O)c(O)c(O)c3)oc3cc(O)cc(O)c3c2=O)C(O)C(O)C1O (stereo not given)    > 100 µM (inactive)
4. NS(=O)(=O)c1cc(Br)c(/N=N\c2ccc(O)c3ncccc23)c(Br)c1    13.2 µM (inactive)
5. CC(C)/C=N\n1c(N)c(C#N)c(C#N)c1C(C)C    23.3 µM (inactive)

# batch: return GI50 for each of the 3 compounds below
1. N#Cc1ccc(Oc2nc3ccc(C(F)(F)F)cc3nc2-c2ccccc2)cc1
2. CC(=O)OCC1OC(N2C(C)=C(C(C)=O)C(c3ccc(Cl)cc3)C(C#N)=C2S)C(OC(C)=O)C(OC(C)=O)C1OC(C)=O (stereo not given)
3. O=C(N/N=C/c1ccc(O)cc1)NNCCO

Key:
1: 16.9 µM (inactive); 2: 8.71 µM (inactive); 3: > 100 µM (inactive)

# batch: return GI50 for each of the 2 compounds below
1. O=C(/C=C(\Nc1ccccc1O)c1ccccc1)C(=O)NC12CC3CC(CC(C3)C1)C2
2. COC(=O)C1=NN2c3ccccc3CN([C@@H](C)c3ccccc3)C(=O)[C@H]2[C@@H]1C

Key:
["> 10 µM (inactive)", "26.1 µM (inactive)"]

---

# Tested on: EKVX
# assay-comment: NCI tumour cell line growth inhibition, 48 h
Activity calls are given as the source filed them. No stated cut-off is given here; in the data, active = GI50 up to about 1.1 µM and inactive = higher.
Give GI50 for every item shown.

Check out these entries, answers already filled in.
1) CC1(c2nc3cc(Cl)c(Cl)cc3[nH]2)CCC(CO)C(C)(C)O1 (stereo unspecified)    23 µM (inactive)
2) COC(=O)/C(C)=C/[N+](=O)[O-]    15.9 µM (inactive)
3) Cc1ccc([N+](=O)[O-])cc1S(=O)(=O)Nc1ccc(C2=NOC(c3ccccc3)C2)cc1 (stereo unspecified)    17.7 µM (inactive)
4) O=C1NN=C(O)C2C3c4ccccc4C(c4ccccc43)C12 (stereo unspecified)    > 100 µM (inactive)
5) Cn1cnc2c1c(=O)n(CCNCCO)c(=O)n2C    > 100 µM (inactive)

Exercise: Report GI50 for `COc1ccc2c(c1OC)C(=O)C2` please.
Key: > 100 µM (inactive)

---

# Test system: SN12C
# assay-comment: NCI tumour cell line growth inhibition, 48 h
Active and inactive are the calls of the source. No stated cut-off is given here; in the data, active = GI50 up to about 1.1 µM and inactive = higher.
Please answer using one outcome listed in active, inactive

Worked examples, 2 compounds total:
1) C=CC[C@H]1O[Si](C(C)(C)C)(C(C)(C)C)[C@H](C)[C@H]1C    inactive
2) CSc1nc2c(ncn2C2OC(CO)C(O)C(O)C2O)c(=O)n1C (configuration not stated)    inactive

Exercise: Could you please tell me the result logged for `Cc1cccc(NC(=O)C(=O)Cc2nc3ccccc3nc2O)c1C` in this assay?
Key: inactive

Exercise: Repeat for the following compound: `O=C(/C=N/c1ccccc1[S-])c1ccco1.O=C(/C=N/c1ccccc1[S-])c1ccco1.[Zn+2]`
Key: inactive

Exercise: Repeat for the following compound: `O=C1c2ccccc2C(=O)c2c1oc1cc(O)c(Cl)cc21`
Key: inactive

Exercise: Repeat for the following compound: CN1CCOC(c2ccccc2)O1 (configuration not stated)
Key: inactive

Exercise: Repeat for the following compound: `N#Cc1ccc(Oc2nc3ccc(C(F)(F)F)cc3nc2-c2ccccc2)cc1`
Key: inactive

Exercise: Repeat for the following compound: `Cc1c(C#N)c2nnn(-c3ccc(Cl)cc3)c(=O)n2c1-c1ccccc1`
Key: active

The origin of these recorded values is ChEMBL document CHEMBL1201862.
